# SYSTEM_UNDER_TEST: T1, human VEGF-A (human, UniProt P15692-4 27-191, limits assumed)
# T1 construct: also called huVEGF-A
# ASSAY_SUMMARY: SPR (Biacore), antibody captured by anti-human Fc, VEGF-A injected
Param label: returns YES when Kd < 5 pM, returns NO otherwise, including exact equality.

hBDB-4G8.15 (antibody, V domains shown, Humanized IgG made from pHybE vectors in HEK293 cells) VH: EVQLVESGGGLVQPGGSLRLSCAASGYTFTNYGMYWVKQAPGKGLEYMGWINTETGKPTYADDFKGRFTFSLDTSKSTAYLQMNSLRAEDTAVYFCARTNYYYRSYIFYFDYWGQGTLVTVSS VL: DTQLTQSPSSLSASVGDRVTISCRASESVSTHMHWYQQKPGKAPKLLIYGASNLESGVPSRFSGSGSGTDFTLTISSLQPEDFATYFCQQSWNDPFTFGQGTKVEIK: YES
hBDB-4G8.4 (antibody, V domains shown, Humanized IgG made from pHybE vectors in HEK293 cells) VH: EIQLVQSGSELKKPGASVKVSCKASGYTFTNYGMYWVRQAPGQGLEYMGWINTETGKPTYADDFKGRFVFSLDTSVSTAYLQISSLKAEDTAVYFCARTNYYYRSYIFYFDYWGQGTMVTVSS VL: AIQLTQSPSSLSASVGDRVTITCRASESVSTHMHWYQQKPGKAPKLLIYGASNLESGVPSRFSGSGSGTDFTLTISSLQPEDFATYYCQQSWNDPFTFGQGTKLEIK: NO
hBEW-9A8.11 (antibody, V domains shown, Humanized IgG made from pHybE vectors in HEK293 cells) VH: EVQLVQSGAEVKKPGASVKVSCKASGYTFTNYGMYWVRQAPGQGLEWMGWINTETGKPIYADDFKGRVTMTTDTSTSTAYMELRSLRSDDTAVYYCARVDYDGSFWFAYWGQGTLVTVSS VL: DIQMTQSPSSLSASVGDRVTITCRASESVSTVIHWYQQKPGKAPKLLIYGASNLESGVPSRFSGSGSGTDFTLTISSLQPEDFATYYCQQHWNDPPTFGQGTKLEIK: NO
hBDB-4G8.2 (antibody, V domains shown, Humanized IgG made from pHybE vectors in HEK293 cells) VH: EVQLVQSGSELKKPGASVKVSCKASGYTFTNYGMYWVRQAPGQGLEWMGWINTETGKPTYADDFKGRFVFSLDTSVSTAYLQISSLKAEDTAVYYCARTNYYYRSYIFYFDYWGQGTMVTVSS VL: ATQLTQSPSLSASVGDRVTITCRASESVSTHMHWYQQKPGKQPKLLIYGASNLESGVPSRFSGSGSGTDFTLTISSLQPEDFATYFCQQSWNDPFTFGQGTKLEIK: YES
hBDB-4G8.3 (antibody, V domains shown, Humanized IgG made from pHybE vectors in HEK293 cells) VH: EVQLVQSGSELKKPGASVKVSCKASGYTFTNYGMYWVRQAPGQGLEWMGWINTETGKPTYADDFKGRFVFSLDTSVSTAYLQISSLKAEDTAVYYCARTNYYYRSYIFYFDYWGQGTMVTVSS VL: DTVLTQSPATLSLSPGERATLSCRASESVSTHMHWYQQKPGQAPRLLIYGASNLESGVPARFSGSGSGTDFTLTISSLEPEDFAVYFCQQSWNDPFTFGQGTKLEIK: YES
hBEW-9E10.2 (antibody, V domains shown, Humanized IgG made from pHybE vectors in HEK293 cells) VH: EIQLVQSGAEVKKPGSSVKVSCKASGYTFTNYGMYWVKQAPGQGLEYMGWIDTETGRPTYADDFKGRFTFTADKSTSTAYMELSSLRSEDTAVYFCARWSGDTTGIRGPWFAYWGQGTLVTVSS VL: DIRMTQSPSSLSASVGDRVTIECLASEDIYSDLAWYQQKPGKSPKLLIYNANGLQNGVPSRFSGSGSGTDYSLTISSLQPEDVATYFCQQYNYFPGTFGQGTKLEIK: NO

[ask] Problem: For the binder hBEW-1B10.2 (antibody, V domains shown, Humanized IgG made from pHybE vectors in HEK293 cells) VH: EVQLVESGGGLVQPGGSLRLSCAASGFSFSKYDMAWFRQAPGKGLEWVASITTSGVGTYYRDSVKGRFTVSRDNAKNSLYLQMNSLRAEDTAVYYCARGYGAMDAWGQGTTVTVSS VL: DIQMTQSPSSLSASVGDRVTITCKASQDIDDYLSWYQQKPGKSPKLVIYAATRLADGVPSRFSGSGSGTDYTLTISSLQPEDFATYYCLQSSSTPWTFGGGTKVEIK , is Kd under 5 pM?
[reply] NO

[ask] Please let me know if hBDB-4G8.5 (antibody, V domains shown, Humanized IgG made from pHybE vectors in HEK293 cells) VH: EIQLVQSGSELKKPGASVKVSCKASGYTFTNYGMYWVRQAPGQGLEYMGWINTETGKPTYADDFKGRFVFSLDTSVSTAYLQISSLKAEDTAVYFCARTNYYYRSYIFYFDYWGQGTMVTVSS VL: ATQLTQSPSLSASVGDRVTITCRASESVSTHMHWYQQKPGKQPKLLIYGASNLESGVPSRFSGSGSGTDFTLTISSLQPEDFATYFCQQSWNDPFTFGQGTKLEIK shows Kd below 5 pM.
[reply] YES

[ask] Hi there! Is Kd for hBEW-9E10.6 (antibody, V domains shown, Humanized IgG made from pHybE vectors in HEK293 cells) VH: EVQLVQSGAEVKKPGSSVKVSCKASGYTFTNYGMYWVRQAPGQGLEWMGWIDTETGRPTYADDFKGRFTFTADKSTSTAYMELSSLRSEDTAVYYCARWSGDTTGIRGPWFAYWGQGTLVTVSS VL: DIRMTQSPSSLSASVGDRVTITCLASEDIYSDLAWYQQKPGKSPKLLIYNANGLQNGVPSRFSGSGSGTDYTLTISSLQPEDVATYFCQQYNYFPGTFGQGTKLEIK below 5 pM, do you know?
[reply] YES

[ask] Strictly below 5 pM in Kd? hBEW-9A8.20 (antibody, V domains shown, Humanized IgG made from pHybE vectors in HEK293 cells) VH: EIQLVQSGAEVKKPGASVKVSCKASGYTFTNYGMYWVKQAPGQGLEYMGWINTETGKPIYADDFKGRFTFTLDTSTSTAYMELRSLRSDDTAVYYCARVDYDGSFWFAYWGQGTLVTVSS VL: ETVLTQSPATLSLSPGERATLSCRASESVSTVIHWYQQKPGQQPRLLIHGASNLESGVPARFSGSGSGTDFTLTISSLEPEDFAVYFCQQHWNDPPTFGQGTKLEIK
[reply] YES

[ask] Take the binder hBEW-9A8.9 (antibody, V domains shown, Humanized IgG made from pHybE vectors in HEK293 cells) VH: EVQLVQSGAEVKKPGASVKVSCKASGYTFTNYGMYWVRQAPGQGLEWMGWINTETGKPIYADDFKGRVTMTTDTSTSTAYMELRSLRSDDTAVYYCARVDYDGSFWFAYWGQGTLVTVSS VL: EIVLTQSPDFQSVTPKEKVTITCRASESVSTVIHWYQQKPDQSPKLLIKGASNLESGVPSRFSGSGSGTDFTLTINSLEAEDAATYYCQQHWNDPPTFGQGTKLEIK and say whether its Kd is less than 5 pM.
[reply] NO

This collection of values is drawn from patent US20170015742A1.
